# SYSTEM_NAME: Trans-sialidase (Trypanosoma cruzi, UniProt Q26966)
# Sequence (Q26966 whole entry): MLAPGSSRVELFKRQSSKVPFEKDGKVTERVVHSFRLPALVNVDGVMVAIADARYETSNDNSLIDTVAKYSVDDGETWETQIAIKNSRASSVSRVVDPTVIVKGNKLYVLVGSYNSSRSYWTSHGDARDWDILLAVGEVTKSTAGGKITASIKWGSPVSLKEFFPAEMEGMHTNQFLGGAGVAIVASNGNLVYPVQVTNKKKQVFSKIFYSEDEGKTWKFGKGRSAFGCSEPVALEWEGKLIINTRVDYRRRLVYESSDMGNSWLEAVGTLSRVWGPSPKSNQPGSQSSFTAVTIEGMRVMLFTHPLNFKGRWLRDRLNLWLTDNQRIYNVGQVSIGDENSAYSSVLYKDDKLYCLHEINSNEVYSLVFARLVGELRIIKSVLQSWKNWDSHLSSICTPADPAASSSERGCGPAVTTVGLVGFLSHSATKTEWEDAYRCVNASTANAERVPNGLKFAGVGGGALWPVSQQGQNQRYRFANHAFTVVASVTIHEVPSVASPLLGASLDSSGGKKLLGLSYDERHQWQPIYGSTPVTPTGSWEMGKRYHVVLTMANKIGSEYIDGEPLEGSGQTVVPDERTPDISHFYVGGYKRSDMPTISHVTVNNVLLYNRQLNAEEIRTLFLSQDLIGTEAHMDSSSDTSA
# RUN_DESCRIPTION: Inhibition of Trypanosoma cruzi trans-Sialidase by TIA assay
Reported values of pIC50 for individual entries
Expect pIC50 as a plain number equal to -log10 of the molar concentration.

Reference set, count: 2
O=C(O)C/C(=C\c1cccc(O)c1)c1nc2ccccc2s1 : 3.28
CCOc1ccccc1/C=C(\CC(=O)O)c1nc2ccccc2s1 : 3.38

Here is the next item to consider.
Field pIC50 (entry `CC(C)Oc1ccccc1/C=C(\CC(=O)O)c1nc2ccccc2s1` ) reads 3.54

* * *

# pIC50 annotations
# SYSTEM_NAME: Trans-sialidase (Trypanosoma cruzi)
# RUN_DESCRIPTION: Inhibition of Trypanosoma cruzi trans-Sialidase
On this scale, pIC50 is minus log10 of a concentration expressed in M (mol/L).

Example entries and their recorded answers appear below.
OC[C@H]1O[C@@H](O[C@@H]2[C@@H](CO)O[C@](O)(CO)[C@H]2O)[C@H](O)[C@@H](O)[C@H]1O : 3.24
CC(=O)Nc1ccc(C(=O)O)nc1N : 3.36
CC(=O)N[C@H]1C(O)CC(P(=O)(O)CCO[C@H]2[C@@H](O)[C@@H](CO)OC(O)[C@@H]2O)=C[C@@H]1O (single isomer, unassigned) : 2.82
CC(=O)Nc1ccc(C(=O)O)cc1CO : 3.27

Kindly review the next compound as well.
Please fill in: pIC50 reported for `CCOP(=O)(O)C1=C[C@H](O)[C@@H](NC(C)=O)[C@H](OCCO)C1` = 2.30

* * *

# SYSTEM_NAME: Trans-sialidase (Trypanosoma cruzi) (UniProt Q26966)
# RUN_DESCRIPTION: Inhibition of Trypanosoma cruzi trans-Sialidase at 1 mM by MuNANA assay
Parameter inhibition: see the listing below.
Report as a plain number; the unit % is understood.

CC(=O)c1sccc1NC(=O)c1ccccc1C(=O)O : 79
CC1(C)SC2c3ccccc3C(=O)N2C1C(=O)NC(Cc1c[nH]c2ccccc12)C(=O)O (stereo not drawn) : 23
CCOc1ccccc1/C=C(\CC(=O)O)c1nc2ccccc2s1 : 90
Cc1c(NS(=O)(=O)c2cccc(C(=O)NCc3ccncc3)c2)c(=O)n(-c2ccccc2)n1C : 23
Cc1ccc(C)c(/C=C(\CC(=O)O)c2nc3ccccc3s2)c1 : 91

Kindly note: Trans-sialidase (Trypanosoma cruzi) (UniProt Q26966), `COC(=O)c1ccc(Oc2ccc(C(F)(F)F)cc2NC(=O)c2ccccc2C(=O)O)s1` , inhibition value reported: 21

Log: Trans-sialidase (Trypanosoma cruzi) (UniProt Q26966), compound `CC(C)Oc1ccccc1/C=C(\CC(=O)O)c1nc2ccccc2s1` , inhibition = 92

inhibition on Trans-sialidase (Trypanosoma cruzi) (UniProt Q26966) for `O=C(O)C/C(=C\c1cccc(C(F)(F)F)c1)c1nc2ccccc2s1` is 92

# `Cc1ccc(S(=O)(=O)Nc2nnc(SCC(=O)Nc3ccc4c(c3)OCO4)s2)cc1` with Trans-sialidase (Trypanosoma cruzi) (UniProt Q26966): inhibition is 82

* * *

# SYSTEM_NAME: UniProt Q26966
RECORDED_METRIC: pKi
# pKi: negative log10 of molar concentration; output just the value

Measured on UniProt Q26966, Cc1ncc(COP(=O)(O)O)c(C=O)c1O [PYRIDOXAL PHOSPHATE ANHYDROUS] has a documented pKi of 2.14

* * *

# SYSTEM_NAME: Trans-sialidase (Trypanosoma cruzi) (UniProt Q26966)
# Sequence (whole entry): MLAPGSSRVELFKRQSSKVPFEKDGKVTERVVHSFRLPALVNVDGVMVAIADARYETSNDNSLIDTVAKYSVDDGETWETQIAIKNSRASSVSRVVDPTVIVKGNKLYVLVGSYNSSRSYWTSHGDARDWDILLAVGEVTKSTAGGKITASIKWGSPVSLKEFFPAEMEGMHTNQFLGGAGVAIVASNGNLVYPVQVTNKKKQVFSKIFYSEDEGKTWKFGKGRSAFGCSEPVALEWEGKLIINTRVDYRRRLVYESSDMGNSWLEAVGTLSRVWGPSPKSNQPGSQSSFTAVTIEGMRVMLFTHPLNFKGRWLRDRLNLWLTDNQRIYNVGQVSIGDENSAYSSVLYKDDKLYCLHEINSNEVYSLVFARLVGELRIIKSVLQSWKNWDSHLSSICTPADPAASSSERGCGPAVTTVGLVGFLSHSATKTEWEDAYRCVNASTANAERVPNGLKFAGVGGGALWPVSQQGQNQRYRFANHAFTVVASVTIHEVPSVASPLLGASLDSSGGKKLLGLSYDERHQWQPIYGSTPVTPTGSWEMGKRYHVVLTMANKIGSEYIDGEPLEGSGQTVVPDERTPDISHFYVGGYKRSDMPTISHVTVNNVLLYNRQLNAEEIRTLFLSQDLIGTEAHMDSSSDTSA
# RUN_DESCRIPTION: Inhibition of Trypanosoma cruzi trans-Sialidase at 1 mM by MuNANA assay
RECORDED_METRIC: inhibition (%)
Supply the numeric figure in %, leaving out any unit text.

O=C(O)c1ccccc1C(=O)NCCCc1c(C(=O)O)[nH]c2cc3c(cc12)OCCO3 : 36
COc1ccc(C(CC(=O)O)NC(=O)COc2cc(C)ccc2C)cc1OC (centres undefined) : 30
CCCOC(=O)c1c(NC(=O)C2CCCCC2C(=O)O)sc(C)c1C (centres undefined) : 87

Entry under test: O=C(O)CC(C(=O)Nc1cc(C(F)(F)F)cc(C(F)(F)F)c1)C1=CCCCC1 (centres undefined) . Its inhibition was 32

inhibition for `O=C(O)C/C(=C\c1cccc(F)c1)c1nc2ccccc2s1` is 94

// inhibition lookup, compound = `CC(=O)c1sc(C(C)(C)C)cc1NC(=O)c1ccccc1C(=O)O` , result: 84

* * *

Overview of reported inhibition across a group of compounds:
# SYSTEM_NAME: UniProt Q26966
# RUN_DESCRIPTION: Inhibition of Trypanosoma cruzi trans-Sialidase at 1 mM by MuNANA assay
Hi! Could you send only the number? It should be in %, unit omitted.

O=C(O)C1CC=C(Cl)CC1C(=O)NCC1OCCc2ccccc21 (stereo not drawn) : 26

Considering `COc1cccc(/C=C(\CC(=O)O)c2nc3ccccc3s2)c1` , its inhibition with UniProt Q26966 was recorded as 91

Bench note, UniProt Q26966: `COCCNC(=O)c1ccc(NS(=O)(=O)c2cc(Cl)sc2Cl)cc1` , inhibition reads 50
